- System: JEG-3
- Protocol: Primary qHTS to identify gynecologic anti-cancer compounds using libraries of approved drugs and bioactive compounds (AID 1345084); note: % is set by controls: 0 for no effect and ±100 for the full control effect; nearly all actives have a fitted effect of over 55% in size
- Condition Context: Gynecologic cancer cell panel viability, ATPlite luminescence, 48 h; series mostly up to 57.5 µM
Records with an inconclusive call do not appear. Active and inactive are the calls of the source. Calls come from the whole dose curve; as a rule, active = well fitted cell-killing curve with a large enough effect; inconclusive = small, poorly fitted or top-dose-only effect, or effect the other way; inactive = flat fitted curve, though single readings scatter.
Measurement Kind: activity change, negative = cytotoxicity

Below, each entry is followed by its recorded activity change, negative = cytotoxicity result.
Molecule	Measurement Kind	Result
O=C(O)C1=CO[C@@H](O[C@@H]2O[C@H](CO)[C@@H](O)[C@H](O)[C@H]2O)[C@@H]2C(CO)=CC[C@H]12	activity change, negative = cytotoxicity	inactive
Cc1c(C2=CCN(C(=O)N(C)C(C)C)CC2)nnn1-c1cccnc1F	activity change, negative = cytotoxicity	inactive
C=CC(C)(O)CC/C=C(\C)C(=O)OC1C(O)C(CO)OC(OC(=O)C23CCC(C)(C)CC2C2=CCC4C5(C)CCC(OC6OC(COC7OCC(OC(C)=O)C(O)C7OC7OC(COC(C)=O)C(O)C(O)C7OC(C)=O)C(O)C(O)C6OC6OCC(O)C(O)C6O)C(C)(C)C5CCC4(C)C2(C)C(O)C3O)C1OC1OCC(OC2OCC(O)C(OC3OCC(O)C(O)C3O)C2O)C(O)C1O (stereo unspecified)	activity change, negative = cytotoxicity	-2.85% [at 6.55 µM] (inactive)
C[C@H]1CC[C@@]2(OC1)O[C@H]1CC3[C@@H]4CC[C@@H]5C[C@@H](O[C@@H]6O[C@H](CO)[C@@H](O[C@@H]7O[C@H](CO[C@@H]8OC[C@@H](O)[C@H](O)[C@H]8O)[C@@H](O[C@@H]8O[C@H](CO)[C@H](O)[C@H](O)[C@H]8O)[C@H](O)[C@H]7O)[C@H](O)[C@H]6O)CC[C@]5(C)C4CC[C@]3(C)[C@H]1[C@@H]2C (stereo partly specified)	activity change, negative = cytotoxicity	-1.5% [at 11.6 µM] (inactive)

## Task Consider the molecule Cc1ccccc1CN1CCn2c1nc1c(c2=O)CN(Cc2ccccc2)CC1 tested on JEG-3; state its activity change, negative = cytotoxicity.
## Result inactive

## Task Consider the molecule O=S(=O)(Nc1cc(Cl)c(Oc2cnc3ccccc3c2)c(Cl)c1)c1ccc(Cl)cc1Cl tested on JEG-3; state its activity change, negative = cytotoxicity.
## Result inactive
